assay: NCI Yeast Anticancer Drug Screen. Data for the sgs1 mgt1 strain (AID 161);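 further: 0% = growth of cultures given vehicle only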; details: S. cerevisiae sgs1 mgt1 strain, at 50.0 µM, hits give high values
This is part of a sample that, as a whole, favours compounds with a hit. Of some 79,000 tested, about 15% had one in any assay. Where a SMILES comes first, the peptide text is derived from it. [ ]: non-standard residue; d: D form. The star is where a group is joined. Cbz = O=C(OCc1ccccc1)*; Nva = CCC[CH](N)C(=O)O
Field: growth inhibition. Provide a value for each of the compounds that follow.
Could you give me the number in %? Just the number is fine.

Item under review: "CCCCCCCCCC/C=C/c1c(C)[nH]c2ccccc2c1=O" . Reported growth inhibition?
-6.3

Query (compound): "CC(C)(CO[C@H]1C[C@H]2CC[C@@]1(C)C2(C)C)[N+](=O)[O-]" ; field requested: growth inhibition
50

Given "Cc1nnc2n(c1=O)CCN2C" , state its recorded growth inhibition.
12.3

Look up growth inhibition for this compound: "CCCC[Si](C)(C)CCCC"
-24.9

Please look up its growth inhibition: "Clc1ccc(-c2cc3ccccc3[nH]2)cc1"
-1.25

Data request, read-out growth inhibition, for "O=[N+]([O-])c1ccc(N/N=C(/c2ccccc2)C2CCCC2)c([N+](=O)[O-])c1"
12.8

Give its growth inhibition value. Item: "O=C(NC(=O)C(F)(F)F)Nc1cccc(C(F)(F)F)c1"
-14.1

Need growth inhibition, item CC(C)CC(O)C(CC(=O)Nc1ccccc1)S(=O)(=O)c1ccccc1 (stereo unspecified)
-6.3

Give the measured growth inhibition of "O=[n+]1c2c(n([O-])c3ccccc31)CCCCC2" .
-1.9

Sample "CN(C)C(=S)Nc1ccc(S(=O)(=O)N2CCCCC2)cc1" — what was its growth inhibition?
-2.7

Entry "NS(=O)(=O)c1ccc(NC2=CC(=O)C(=O)c3ccccc32)cc1" has what growth inhibition?
-21.4

Consider the compound shown here: "COc1ccc(NC(=O)c2c(Br)c(Br)c(Br)c(Br)c2C(=O)O)c(Cl)c1" What is its recorded growth inhibition?
92

Look up growth inhibition for this compound: "O=CC(=O)c1ccccc1O"
44.9

Requested field: growth inhibition. Item: O=C(CC(C(=O)c1ccc(F)cc1)c1ccsc1)c1cccs1 (stereo unspecified)
26.8

Field request: growth inhibition | item: "O=C(O)c1ccccc1C(=O)CC(O)(C(F)(F)F)C(F)(F)F"
-1.5

Which growth inhibition value belongs to "N#Cc1c2c(c(=O)n3c1[nH]c1ccccc13)CCC2" ?
-15.6

I'd like to know its growth inhibition. The compound in question is CC1CCCC1N (stereo unspecified)
-24.5

Quick check: growth inhibition of CCOc1cc2c(cc1C(C)c1ccc(OCc3ccccc3)cc1)OCO2 (stereo unspecified) ?
2.7

Fill in the blank: the reported growth inhibition of "Cc1ccccc1/C=N\N=C\c1ccco1" is ____.
-5.25

Please look up its growth inhibition: NC(CSCC(=O)O)C(=O)O (stereo unspecified)
1.15

Field request: growth inhibition | item: "Cn1c(=Nc2ccc(Cl)cc2)sc2ccccc21"
-21.4

Which measured growth inhibition value corresponds to O=C(/C=C/c1ccc(O)cc1)OC[C@@H](O)COC1OC(CO)C(O)C(O)C1O (stereo partly specified) ?
-4.35

Request the reported growth inhibition associated with COc1cc2[nH]c3c(c2cc1OC)CCN[C@@]31CC[C@@]2(CC3c4c(cc(OC)c(O)c42)CCN3C)C[C@@H]1OC (stereo partly specified)
-37.5

Returns the measured growth inhibition for the input compound. Input: "Cc1nc(N)c(N=O)c(=O)[nH]1"
14.2

Could you tell me which growth inhibition is on file for "CC(=O)N[C@@H]1CCC[C@H](NC(C)=O)C1" ?
-12.7

Look up growth inhibition for this compound: "O=C(Oc1cccc2ccccc12)c1cccnc1"
6.4

Given "COC(=O)CCc1nc2ccccc2c(=O)[nH]1" , state its recorded growth inhibition.
-6.05

Query (compound): CCCC(NC(=O)OCc1ccccc1)C(=O)NC(CO)C(=O)O (stereo unspecified) (Cbz-[Nva]-Ser-OH; configuration not given here) ; field requested: growth inhibition
9.05

Consider the compound shown here: O=c1nc2n(cc1/C=C\Br)C1CC(O)C(CO2)O1 (stereo unspecified) What is its recorded growth inhibition?
-24.1

Would you kindly share the measured growth inhibition for CCOC(CCCl)c1ccc(C)cc1 (stereo unspecified) ?
-20.4

What growth inhibition value was documented for this compound, "CC1(C)CC([NH-])(C(=O)O)CC(C)(C)N1O.CC1(C)CC([NH-])(C(=O)O)CC(C)(C)N1O.[Cu+2]" ?
16.5

Look at this compound and give its reported growth inhibition. NC1CCCCC1NCCNC1CCCCC1N (stereo unspecified)
16.4

Consider the compound "Cc1cc2c(cc1N)C(C)(C)CCC2(C)C" and give its measured growth inhibition.
10.2

I am curious: what growth inhibition value has been reported for "CCCCCCCCCCCCCCCCCCNC(=S)/N=C\C(C(=O)Nc1ccccc1C)=C(/C)O" ?
5.85

Quick one: growth inhibition for "Fc1ccc(-c2ccc(Br)cc2)cc1" ?
2.05

So what's the measured growth inhibition for this one? "Cc1ccc(S(=O)(=O)OCC2=C(COS(=O)(=O)c3ccc(C)cc3)C3c4ccccc4C2c2ccccc23)cc1"
1.55

What does the record list as growth inhibition for "Cc1cc(N(CCC#N)CCC#N)ccc1/C=C(\N=[N+]=[N-])C(=O)NC(=O)COc1ccccc1" ?
4.7

Field request: growth inhibition | item: "O=C(Nc1ccccc1)C(=O)Nc1ccccc1"
-8.05

Give its growth inhibition value. Item: "Cc1cc(N(CCC#N)S(=O)(=O)c2ccccc2)ccc1C=O"
13.9

Could you tell me which growth inhibition is on file for CCOC(=O)C1=C(C)N(NC(N)=O)C(C)(O)C12CCOC2=O (stereo unspecified) ?
-10.8

Reported growth inhibition for "C[C@H](CCC(=O)NCC(=O)O)[C@H]1CC[C@H]2[C@@H]3[C@H](O)C[C@@H]4C[C@H](O)CC[C@]4(C)[C@H]3CC[C@]12C" : what is it?
0.15

Would you mind telling me what growth inhibition value was observed for "Cc1ccc(N=Nc2ccc(C)cc2NC(=S)Nc2ccccc2)cc1" ?
-12.3

Entry "CCOc1ccc(NC(=O)/C(Cc2nc3ccccc3[nH]c2=O)=N\O)cc1" has what growth inhibition?
-15.9

Which growth inhibition reading was recorded for the compound "O=C(O)c1cccc2c1cc(Br)c1ccccc12" ?
32

What value of growth inhibition has been recorded for this entry: "O=C1/C(=C\c2ccc(O)cc2)CCC/C1=C/c1ccc(Cl)c(Cl)c1"
7.15

Name the reported growth inhibition value associated with the compound CC(=O)C1CC(CCC2([N+](=O)[O-])CCC(C)(O)C(C(C)=O)C2)([N+](=O)[O-])CCC1(C)O (stereo unspecified)
6.7

###

experiment: NCI Yeast Anticancer Drug Screen. Data for the sgs1 mgt1 strain (AID 161);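 further: 0% = growth of cultures given vehicle only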; conditions: S. cerevisiae sgs1 mgt1 strain, at 50.0 µM, hits give high values
About 79,000 compounds went through this panel and 15% of them were active in at least one assay; those are over-represented in the sample as a whole.
Kindly state growth inhibition for each of the entries shown.
Express your answer in %, writing the number without its unit.

Please look up its growth inhibition: "O=[N+]([O-])c1c(O)c(O)c2ccccc2c1Nc1ccccc1"
-0.3

Fill blank: measured growth inhibition of the compound CCC1=CCN2CCC34c5cc(C6(C(=O)OC)CC7CC(CC)CN(CCc8c6[nH]c6ccccc86)C7)c(OC)cc5N(C)C3C(O)(C(=O)OC)C(OC(C)=O)C1C24 (stereo not drawn) is ____.
-3.95

Look at this compound and give its reported growth inhibition. COC(=O)c1c2c(cc3c1CC1(C3)Cc3ccc4c(c3C1=O)CCC4)CCC2 (stereo not drawn)
-7.35

Entry "CCOc1ccc(N=Nc2ccc3oc(=O)c(/C(C)=N/NC(=O)CC(=O)Nc4cccc(OC)c4)cc3c2)cc1" has what growth inhibition?
25.2

Recorded growth inhibition of "COc1ccc2c(c1)c1c3c(ccc4ncn2c43)N(CCO)CCN=1" , please.
-25.9

# lookup: growth inhibition of CC1C[C@]2(C)C(=O)N(c3ccccc3)C(=N)[C@@H]2N(C)c2ccccc21 (stereo partly drawn)
-3.55

So what's the measured growth inhibition for this one? "Nc1cc(Cl)cc(S(=O)(=O)O)c1O"
-2.95

Record request: growth inhibition value, item NC(CSc1nc2ccccn2c1[N+](=O)[O-])C(=O)O (stereo not drawn)
-30.1

May I ask what growth inhibition has been recorded for COc1ccc(C2CC(c3ccccc3)=NN2c2ccccc2)cc1 (stereo not drawn) ?
5.85

Would you mind telling me what growth inhibition value was observed for "C=CCc1c(O)c2ccccc2[nH]c1=O" ?
-25.9

Fill blank: measured growth inhibition of the compound "CSc1nc(SC)c(Cl)c(C(Cl)Cl)n1" is ____.
68.8

Entry COc1ccc(C(O)C(NCCO)c2ccccc2)cc1 (stereo not drawn) has what growth inhibition?
4.8

Need growth inhibition, item "CC(C)(C)C(=O)[CH-]C(=O)C(C)(C)C.CC(C)(C)C(=O)[CH-]C(=O)C(C)(C)C.CN(C)c1ccc([O-])cc1.CN(C)c1ccc([O-])cc1.[Ti+4]"
-12.2

For "Clc1ccc(Nc2ncnc3oc(-c4ccccc4)c(-c4ccccc4)c23)cc1" , what is its reported growth inhibition?
1.3

// lookup growth inhibition for N#CC1(c2nc3ccccc3o2)C(=O)C(=O)N(C2C3CC4CC(C3)CC2C4)C(=O)C1=O (stereo not drawn)
-39.1

# growth inhibition lookup, item c1ccc(Cc2nnc3n2CCC(c2ccccc2)S3)cc1 (stereo not drawn)
-10.9

What does the record list as growth inhibition for "CCN(CCNc1cc(OC)cc2cccnc12)CC(C)C" ?
1.8

What does the record list as growth inhibition for CCC(C)OC(=Nc1ccccc1)c1ccccc1 (stereo not drawn) ?
-4.5

I'd like to know its growth inhibition. The compound in question is COC(=O)N/N=C(/CC1(O)C(=O)Nc2ccc([N+](=O)[O-])cc21)c1ccccc1 (stereo not drawn)
36.5

What does the record list as growth inhibition for "CCOc1ccc(Br)cc1/C=N\NC(=O)c1ccccc1N(C)C" ?
-16.8

Entry "CC(C)(C)C(=O)Cn1nnnc1C(=O)C(C)(C)C" : reported growth inhibition = ?
-15.8

For Cc1cccc(CC(N)C(=O)O)c1 (stereo not drawn) , what is its reported growth inhibition?
-6.95

Fill in the blank: the reported growth inhibition of "Clc1ccccc1-c1c2ccccc2cc2c1ccc1ccccc12" is ____.
-7.75

Consider the compound shown here: "Cc1c(Cl)cccc1NC(=O)Oc1ccc(Cl)cc1" What is its recorded growth inhibition?
-5.6

Any idea what its growth inhibition is? The compound is "CCCCCCC1=CCCC1=O"
-3.35

Item "CN(C)c1ccc(/C=C/c2ccnc3ccc(Cl)cc23)cc1" has what recorded growth inhibition?
32.1

# query: growth inhibition of entry "NCCCCCCN"
-36.6

Entry "CCOC(=O)Nc1cccc(Cl)c1Cl" : reported growth inhibition = ?
-22.4

If you can, please state the reported growth inhibition value of "COC(=O)c1ccc(NCC2=CC(=O)c3ccccc3C2=O)cc1" .
59

Record request: growth inhibition value, item "CCCCCC(C)(C)O"
-3.9

Recorded growth inhibition of "O=C(CCCl)NNC1=NCCCN1" , please.
-15.4

Could you share which growth inhibition value was measured for CC1C(=O)OC(=O)C1C (stereo not drawn) ?
11.5

// query growth inhibition value for entry "COc1ccccc1NC(=O)OCc1ccco1"
28.6

Need growth inhibition of "COC(=O)[CH2][Ge]([c]1ccccc1)[c]1ccccc1.COC(=O)[CH2][Ge]([c]1ccccc1)[c]1ccccc1" , thanks.
37.3

Given "CCN(CC)c1nc2ccccc2o1" , state its recorded growth inhibition.
3.7

May I ask what growth inhibition has been recorded for "CCOc1ccccc1C1=CCCCCC1" ?
-9

What does the record list as growth inhibition for "CSc1nc(C)c(CCOC(C)=O)c(Cl)n1" ?
-16.2

Consider the compound shown here: "C=C(C)COC(CCC)OCC(=C)C" What is its recorded growth inhibition?
-8.45

What does the record list as growth inhibition for "C(=N[C@H]1CCCC[C@H]1N=Cc1ccc[nH]1)c1ccc[nH]1" ?
8.75

Which growth inhibition is listed for "O=[N+]([O-])c1cccc(C=NC23CC4CC(CC(C4)C2)C3)c1" ?
-29.6

Which growth inhibition reading was recorded for the compound "O=C1CC[C@@H](S(=O)(=O)c2ccccc2)[C@H](/C=C/c2ccccc2)O1" ?
37.6

Sample "O=C(NNC(=S)S)c1ccncc1" — what was its growth inhibition?
-1.2

Give its growth inhibition value. Item: "O=[N+]([O-])c1ccc(-c2csc(N=Nc3c(O)[nH]c4ccccc34)n2)cc1"
-22.4

Looking for the measured growth inhibition of "CCCCOC(=O)c1ccc(NC(=O)Nc2cc([N+](=O)[O-])ccc2F)cc1" , can you help?
63

Entry "Nc1nc(N)c2nc(-c3ccc(O)cc3)c(-c3ccc(O)cc3)nc2n1" : reported growth inhibition = ?
0.15

For CCOC(=O)c1ccc2c(c1)C(C)(SC)C(=O)N2 (stereo not drawn) , what is its reported growth inhibition?
-2.85

What growth inhibition value was documented for this compound, "CC1(C)CC(Nc2ccccc2)=CC(=Nc2ccccc2)S1" ?
-3.55

Look up growth inhibition for this compound: NC1=C(O)C(=O)C(c2ccccc2)O1 (stereo not drawn)
-4.15
